The measurements presented in this section are drawn from paper PMC9482650.

target: PDZRN4_1, Q6ZMN7; assay: holdup assay; set-up: key: below the threshold = too weak to quantify, mostly under pKd 3.1 to 4; conditions: plain residues with an end cap or a label only (N-terminal biotin on a linker: ado-ado)
Sequence (Q6ZMN7 213-318): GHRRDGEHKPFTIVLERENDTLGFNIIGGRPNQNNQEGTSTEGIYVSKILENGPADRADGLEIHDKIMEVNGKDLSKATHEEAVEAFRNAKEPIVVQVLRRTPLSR
MEASURE: pKd

Below, 5 binders whose answers are already recorded.
[[record]]
binder = "KRPEMTSSSV [MUC3A, MUC3B, Q02505;Q9H195]"
measure = "pKd"
endpoint_value = "below the threshold"

[[record]]
binder = "RFQQRMQTHV [KIRREL1, Q96J84]"
measure = "pKd"
endpoint_value = "below the threshold"

[[record]]
binder = "QSGLYESEEL [MYOT, Q9UBF9]"
measure = "pKd"
endpoint_value = "below the threshold"

[[record]]
binder = "EKCGKEFSEF [PRKACA, P17612]"
measure = "pKd"
endpoint_value = "below the threshold"

[[record]]
binder = "DRIQSCLSDA [SBF1, O95248]"
measure = "pKd"
endpoint_value = "below the threshold"


Please give pKd, item by item, for the list that follows.
1. DDASLPVSDV [PLEKHA1, Q9HB21]
2. QKAPTKEFYA [SDC2, P34741]

**Result**
1. below the threshold
2. below the threshold
